Each item that follows carries a reported EC50.
Molecular target: T1, cynomolgus monkey (Macaca fascicularis) TfR1 (cynomolgus monkey (Macaca fascicularis), UniProt Q5RDH6 89-760 (Pongo abelii entry), limits assumed)
T1 construct: also called cTfR1; cyTfR1
T1 chain: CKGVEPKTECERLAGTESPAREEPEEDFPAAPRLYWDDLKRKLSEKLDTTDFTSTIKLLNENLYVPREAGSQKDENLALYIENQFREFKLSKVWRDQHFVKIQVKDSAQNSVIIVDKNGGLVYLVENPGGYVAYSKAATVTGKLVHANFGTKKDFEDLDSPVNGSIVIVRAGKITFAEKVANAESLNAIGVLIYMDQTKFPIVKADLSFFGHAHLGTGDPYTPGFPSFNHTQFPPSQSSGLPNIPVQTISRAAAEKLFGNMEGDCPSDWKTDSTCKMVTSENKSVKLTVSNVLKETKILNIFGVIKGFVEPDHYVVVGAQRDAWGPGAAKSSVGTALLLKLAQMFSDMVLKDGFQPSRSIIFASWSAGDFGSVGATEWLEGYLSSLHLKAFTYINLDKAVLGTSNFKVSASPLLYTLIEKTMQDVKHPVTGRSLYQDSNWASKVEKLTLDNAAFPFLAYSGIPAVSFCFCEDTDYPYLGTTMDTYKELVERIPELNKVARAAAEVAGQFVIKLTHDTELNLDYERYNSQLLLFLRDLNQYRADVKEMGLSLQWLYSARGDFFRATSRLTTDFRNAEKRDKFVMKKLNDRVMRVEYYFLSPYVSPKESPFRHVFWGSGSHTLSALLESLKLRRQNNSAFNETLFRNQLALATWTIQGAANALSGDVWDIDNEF
Assay: ELISA, d0
The answer is to be given in nM; state only the numeric part.

Reference set (3 entries):
>>> assay_result("humanized anti-TfR Fab 5H12 VH5 (C33Y)/Vk3 (Fab, V domains shown) VH: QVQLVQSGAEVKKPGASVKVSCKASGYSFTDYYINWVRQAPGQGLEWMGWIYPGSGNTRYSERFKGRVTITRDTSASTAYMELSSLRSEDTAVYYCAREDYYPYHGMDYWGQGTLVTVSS VL: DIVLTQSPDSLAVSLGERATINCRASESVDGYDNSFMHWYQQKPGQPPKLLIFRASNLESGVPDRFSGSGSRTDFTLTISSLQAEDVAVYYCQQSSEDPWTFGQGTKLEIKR")
2.1
>>> assay_result("humanized anti-TfR Fab 5H12 VH5 (C33D)/Vk4 (Fab, V domains shown) VH: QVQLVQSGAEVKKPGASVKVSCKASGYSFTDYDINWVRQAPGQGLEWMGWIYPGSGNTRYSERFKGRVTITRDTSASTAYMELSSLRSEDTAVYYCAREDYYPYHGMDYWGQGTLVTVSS VL: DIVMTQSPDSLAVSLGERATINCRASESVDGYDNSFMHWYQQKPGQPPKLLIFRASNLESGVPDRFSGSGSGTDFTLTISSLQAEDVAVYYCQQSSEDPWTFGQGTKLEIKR")
3.5
>>> assay_result("humanized anti-TfR Fab 3M12 VH3/Vk3 (Fab, V domains shown) VH: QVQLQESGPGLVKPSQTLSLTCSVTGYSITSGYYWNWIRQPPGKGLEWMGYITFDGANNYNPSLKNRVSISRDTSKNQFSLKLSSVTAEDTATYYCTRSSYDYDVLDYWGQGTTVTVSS VL: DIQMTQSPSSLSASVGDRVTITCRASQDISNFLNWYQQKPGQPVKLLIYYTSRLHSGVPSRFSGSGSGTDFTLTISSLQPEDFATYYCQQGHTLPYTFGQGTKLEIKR")
4.7

With those in mind, consider the next binder.
Fill in EC50 for record humanized anti-TfR Fab 3M12 VH3/Vk2 (Fab, V domains shown) VH: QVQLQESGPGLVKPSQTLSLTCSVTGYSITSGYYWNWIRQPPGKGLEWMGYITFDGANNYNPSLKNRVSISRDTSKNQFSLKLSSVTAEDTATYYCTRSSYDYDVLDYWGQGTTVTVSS VL: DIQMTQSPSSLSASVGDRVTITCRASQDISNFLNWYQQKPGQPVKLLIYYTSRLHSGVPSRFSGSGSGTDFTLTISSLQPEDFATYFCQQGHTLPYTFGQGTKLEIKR
9.9
